Target: Phosphatidylinositol 4,5-bisphosphate 3-kinase catalytic subunit alpha isoform (Homo sapiens)
Sequence (P42336 whole entry, canonical isoform): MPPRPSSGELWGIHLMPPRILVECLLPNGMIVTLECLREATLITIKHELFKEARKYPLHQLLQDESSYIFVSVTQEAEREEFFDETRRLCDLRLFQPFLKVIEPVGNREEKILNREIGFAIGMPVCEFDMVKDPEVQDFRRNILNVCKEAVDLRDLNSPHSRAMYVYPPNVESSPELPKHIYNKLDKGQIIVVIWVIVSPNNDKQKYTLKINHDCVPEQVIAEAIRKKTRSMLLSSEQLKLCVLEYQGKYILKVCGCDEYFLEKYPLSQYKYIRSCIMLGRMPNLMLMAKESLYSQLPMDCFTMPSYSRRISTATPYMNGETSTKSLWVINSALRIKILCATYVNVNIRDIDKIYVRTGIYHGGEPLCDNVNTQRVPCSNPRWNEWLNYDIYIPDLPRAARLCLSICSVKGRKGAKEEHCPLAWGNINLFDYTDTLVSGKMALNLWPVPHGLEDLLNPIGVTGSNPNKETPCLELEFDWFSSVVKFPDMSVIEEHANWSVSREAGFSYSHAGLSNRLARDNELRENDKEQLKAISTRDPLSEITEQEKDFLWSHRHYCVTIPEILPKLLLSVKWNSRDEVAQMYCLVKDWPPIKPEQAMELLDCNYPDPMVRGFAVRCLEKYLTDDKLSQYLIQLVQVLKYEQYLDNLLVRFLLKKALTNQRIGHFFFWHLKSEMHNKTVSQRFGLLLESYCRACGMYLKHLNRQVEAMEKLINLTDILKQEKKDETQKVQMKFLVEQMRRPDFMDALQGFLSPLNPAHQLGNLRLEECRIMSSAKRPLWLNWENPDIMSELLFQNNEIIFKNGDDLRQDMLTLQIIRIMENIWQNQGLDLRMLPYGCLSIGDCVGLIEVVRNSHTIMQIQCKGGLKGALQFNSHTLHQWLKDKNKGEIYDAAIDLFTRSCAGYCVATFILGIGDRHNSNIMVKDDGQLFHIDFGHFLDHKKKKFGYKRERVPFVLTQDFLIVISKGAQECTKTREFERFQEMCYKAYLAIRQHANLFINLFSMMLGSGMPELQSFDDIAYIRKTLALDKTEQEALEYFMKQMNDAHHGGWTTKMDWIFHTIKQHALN
Test: Inhibition of human PI3Kalpha expressed in SF9 insect cells after 2 hrs by fluorescence polarization assay
REPORTED ENDPOINT: IC50 (nM)
One number for each entry, in nM.

I have 2 molecules here; please give me IC50 for each one.
1. COc1nc(-c2ccc(NC(=O)Nc3ccc(C(=O)N4CCNC(C)(C)C4)cc3)cc2)nc(N2CCOCC2)n1
2. COc1nc(-c2ccc(NC(=O)Nc3ccc(C(=O)N4CCN(C)CC4)cc3)cc2)nc(N2CCOCC2)n1

[1.4, 1.2]

###

Experiment: Half life in rat liver microsomes after 30 mins
Format: ADME, Microsome
REPORTED ENDPOINT: half-life (min)
Numbers only, in min.

# COMPOUND, MEASUREMENT UNIT, OBSERVED RESULT
measured = [
    ("O=C(Nc1ccc(C(=O)NCCN2CCCCC2)cc1)Nc1ccc(-c2nc(O[C@H]3CCOC3)nc(N3CCOCC3)n2)cc1", "min", 27),
    ("COc1nc(-c2ccc(NC(=O)Nc3ccc(C(=O)N4CCN(C)CC4)cc3)cc2)nc(N2CCOCC2)n1", "min", 16),
    ("CN(C)CCN(C)C(=O)c1ccc(NC(=O)Nc2ccc(-c3nc(O[C@H]4CCOC4)nc(N4CCOCC4)n3)cc2)cc1", "min", 27),
    ("CC(C)Oc1nc(-c2ccc(NC(=O)Nc3ccc(C(=O)N4CCN(C)CC4)cc3)cc2)nc(N2CCOCC2)n1", "min", 17),
    ("COc1nc(-c2ccc(NC(=O)Nc3ccc(C(=O)N(C)CCN(C)C)cc3)cc2)nc(N2CCOCC2)n1", "min", 15),
]

# per-item lookup of half-life; items listed below
1. O=C(Nc1ccc(C(=O)NCCN2CCCC2)cc1)Nc1ccc(-c2nc(O[C@H]3CCOC3)nc(N3CCOCC3)n2)cc1
2. CN1C2CCC1CC(Oc1nc(-c3ccc(NC(=O)Nc4ccc(C(N)=O)cc4)cc3)nc(N3CCOCC3)n1)C2 (configuration not stated)
3. COc1nc(-c2ccc(NC(=O)Nc3ccc(C(=O)N4CCNC(C)(C)C4)cc3)cc2)nc(N2CCOCC2)n1
4. CN1CCN(C(=O)c2ccc(NC(=O)Nc3ccc(-c4nc(O[C@H]5CCOC5)nc(N5CCOCC5)n4)cc3)cc2)CC1

[28, 4, 29, 20]

###

Target: Serine/threonine-protein kinase mTOR (Homo sapiens)
REPORTED ENDPOINT: pIC50
One number for each entry, as −log10 of the molar value.

Solved cases below.
# SMILES RECORD, pIC50
records = [
    ("O=C(Nc1ccc(C(=O)NCCN2CCCC2)cc1)Nc1ccc(-c2nc(O[C@H]3CCOC3)nc(N3CCOCC3)n2)cc1", 9.52),
    ("COc1nc(-c2ccc(NC(=O)Nc3ccc(C(=O)N4CCNC(C)(C)C4)cc3)cc2)nc(N2CCOCC2)n1", 7.73),
]

API: value(readout= pIC50, system= Serine/threonine-protein kinase mTOR (Homo sapiens), query= CC(C)Oc1nc(-c2ccc(NC(=O)Nc3ccc(C(=O)NCCN(C)C)cc3)cc2)nc(N2CCOCC2)n1 )
9.40

###

Assay: Aqueous solubility of the compound at pH 7.4
Assay type: physicochemical
Conditions: buffer
REPORTED ENDPOINT: log10(solubility) (log10 of the value in mg/mL)
The base-10 logarithm of solubility, taken with solubility in mg/mL, is what appears here.

Consider the following illustrative entries.
# COMPOUND, log10(solubility)
measured = [
    ("O=C(Nc1ccc(C(=O)NCCN2CCCC2)cc1)Nc1ccc(-c2nc(O[C@H]3CCOC3)nc(N3CCOCC3)n2)cc1", -1.64),
    ("COc1nc(-c2ccc(NC(=O)Nc3ccc(C(=O)N4CCN(C)CC4)cc3)cc2)nc(N2CCOCC2)n1", -2.52),
    ("O=C(Nc1ccc(C(=O)NCCN2CCCCC2)cc1)Nc1ccc(-c2nc(O[C@H]3CCOC3)nc(N3CCOCC3)n2)cc1", -3.00),
]

Below is a list of compounds. For each, state its recorded log10(solubility).
1. CN1CCN(C(=O)c2ccc(NC(=O)Nc3ccc(-c4nc(OC5COC5)nc(N5CCOCC5)n4)cc3)cc2)CC1
2. CN(C)C1CCN(C(=O)c2ccc(NC(=O)Nc3ccc(-c4nc(N5CCOCC5)nc(N5CCOCC5)n4)cc3)cc2)CC1 [GEDATOLISIB]
3. CN1CCN(C(=O)c2ccc(NC(=O)Nc3ccc(-c4nc(O[C@H]5CCOC5)nc(N5CCOCC5)n4)cc3)cc2)CC1
4. CN1C2CCC1CC(Oc1nc(-c3ccc(NC(=O)Nc4ccc(C(N)=O)cc4)cc3)nc(N3CCOCC3)n1)C2 (stereo not given)
5. CC(C)Oc1nc(-c2ccc(NC(=O)Nc3ccc(C(=O)NCCN(C)C)cc3)cc2)nc(N2CCOCC2)n1
6. CC(C)Oc1nc(-c2ccc(NC(=O)Nc3ccc(C(=O)N(C)CCN(C)C)cc3)cc2)nc(N2CCOCC2)n1

1: -2.40; 2: -1.82; 3: -3.00; 4: -1.21; 5: -2.52; 6: -1.82

May I ask what log10(solubility) has been recorded for COc1nc(-c2ccc(NC(=O)Nc3ccc(C(=O)N4CCNC(C)(C)C4)cc3)cc2)nc(N2CCOCC2)n1 ?
-1.21

###

System: MDA-MB-361
Assay: cells
Conditions: Homo sapiens, MDA-MB-361, 72 h
I'd appreciate it if you could supply IC50 values for the items below.

Here's what some known entries look like.
# SMILES RECORD, IC50
rows = [
    ("COc1nc(-c2ccc(NC(=O)Nc3ccc(C(=O)NCCN4CCCCC4)cc3)cc2)nc(N2CCOCC2)n1", "< 31 nM"),
    ("CN1CCN(C(=O)c2ccc(NC(=O)Nc3ccc(-c4nc(N5CCOCC5)[nH]c(=O)n4)cc3)cc2)CC1", "> 1000 nM"),
]

Here is another compound to look at.
Entry COc1nc(-c2ccc(NC(=O)Nc3ccc(C(=O)NCCN(C)C)cc3)cc2)nc(N2CCOCC2)n1 : reported IC50 = ?
< 31 nM
